PROTOCOL_NOTES: Pharmacokinetics in mouse plasma (LC-MS/MS)
Format: in vivo, C57/Bl6 mice
RUN_PARAMETERS: C57/Bl6, mouse, ip; mice, intraperitoneal, 50 mg/kg, plasma; read-out: mean t½ (converted)
RECORDED_METRIC: half-life (min)
Dear colleague, please return just the value in min, with no unit written.

stdin: Supply measured half-life of CCCCCOc1ccc(C2/C(=C(\O)c3ccc4c(c3)CC(C)O4)C(=O)C(=O)N2c2nnc(SCc3ccc(Cl)cc3)s2)cc1OCC (stereo not shown) in your reply.
stdout: 660

====

TARGET_UNDER_TEST: UniProtKB Q07820
Sequence (Q07820 whole entry): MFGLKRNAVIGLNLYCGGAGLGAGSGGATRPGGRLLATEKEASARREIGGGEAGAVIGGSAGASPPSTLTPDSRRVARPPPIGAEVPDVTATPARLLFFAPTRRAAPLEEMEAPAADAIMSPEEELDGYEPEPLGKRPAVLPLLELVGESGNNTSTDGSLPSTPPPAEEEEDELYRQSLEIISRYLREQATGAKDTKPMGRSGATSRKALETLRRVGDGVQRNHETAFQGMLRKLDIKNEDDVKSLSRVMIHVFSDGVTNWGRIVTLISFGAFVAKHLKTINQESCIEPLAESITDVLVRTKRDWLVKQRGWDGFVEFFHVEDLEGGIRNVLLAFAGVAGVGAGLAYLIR
PROTOCOL_NOTES: SPR binding to immobilized Mcl-1
RUN_PARAMETERS: 25 °C, 2-site fit, highest affinity site
RECORDED_METRIC: Kd (nM)
Report the figure in nM without appending any unit label.

COMPOUND: CCCCOc1ccc(C2/C(=C(\O)c3ccc4c(c3)CC(C)O4)C(=O)C(=O)N2c2nnc(SCc3ccc(Cl)cc3)s2)cc1OCC (centres unmarked)
TARGET_UNDER_TEST: UniProtKB Q07820
Kd, nM: 3900

stdin: Read off the recorded Kd for CCCCCOc1ccc(C2/C(=C(\O)c3ccc4c(c3)CC(C)O4)C(=O)C(=O)N2c2nnc(SCc3ccc(Cl)cc3)s2)cc1OCC (centres unmarked)
stdout: 1160

====

PROTOCOL_NOTES: Pharmacokinetics in mouse plasma (LC-MS/MS)
Type: in vivo, C57/Bl6 mice
RUN_PARAMETERS: C57/Bl6, mouse, ip; mice, intraperitoneal, 50 mg/kg, plasma
RECORDED_METRIC: Cmax (µM)
The answer is to be given in µM; state only the numeric part.

stdin: Fill in Cmax for record CCCCCOc1ccc(C2/C(=C(\O)c3ccc4c(c3)CC(C)O4)C(=O)C(=O)N2c2nnc(SCc3ccc(Cl)cc3)s2)cc1OCC (stereo not shown)
stdout: 4.1

====

PROTOCOL_NOTES: Pharmacokinetics in mouse plasma (LC-MS/MS)
Assay type: in vivo, C57/Bl6 mice
RUN_PARAMETERS: C57/Bl6, mouse, ip; mice, intraperitoneal, 50 mg/kg, plasma; read-out: mean AUCtot
RECORDED_METRIC: AUC (µM·h)
Give a bare numeral; the unit µM·h is implied.

stdin: Please give measured AUC of the following entry: CCCCCOc1ccc(C2/C(=C(\O)c3ccc4c(c3)CC(C)O4)C(=O)C(=O)N2c2nnc(SCc3ccc(Cl)cc3)s2)cc1OCC (stereo not shown)
stdout: 40.9

====

TARGET_UNDER_TEST: Bcl-2 (Homo sapiens)
Sequence (P10415 whole entry): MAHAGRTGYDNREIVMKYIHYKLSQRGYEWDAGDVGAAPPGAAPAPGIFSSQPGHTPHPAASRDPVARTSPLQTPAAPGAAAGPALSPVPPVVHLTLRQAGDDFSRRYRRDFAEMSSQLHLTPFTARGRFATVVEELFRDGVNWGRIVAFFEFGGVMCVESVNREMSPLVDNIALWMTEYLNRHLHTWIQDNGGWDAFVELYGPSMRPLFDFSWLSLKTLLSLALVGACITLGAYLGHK
PROTOCOL_NOTES: SPR binding to immobilized Bcl-2
RUN_PARAMETERS: SPR, 25 °C, 2-site fit, highest affinity site
RECORDED_METRIC: pKd
To interpret pKd, take it as minus log10 of a concentration measured in moles per litre.

COMPOUND: CCCCCOc1ccc(C2/C(=C(\O)c3ccc4c(c3)CC(C)O4)C(=O)C(=O)N2c2nnc(SCc3ccc(Cl)cc3)s2)cc1OCC (stereo not drawn)
pKd: 6.72
--
COMPOUND: CC(C)(C)c1ccc(C=NN2CCN(Cc3ccccc3Cl)CC2)cc1
pKd: 6.32

Field: next compound
stdin: Specify pKd for O=C(CN1CCN(Cc2ccccc2Cl)CC1)N/N=C/c1ccccc1C(F)(F)F , system Bcl-2 (Homo sapiens).
stdout: 5.34
